# tgt: GDP-bound KRAS protein (aa 1-169), containing both G12D and C118A amino acid substitutions (Homo sapiens (Human), UniProt P01116, C118A/G12D)
# Sequence (P01116 other isoform, or with tags, fused parts or gaps G12D/C118A): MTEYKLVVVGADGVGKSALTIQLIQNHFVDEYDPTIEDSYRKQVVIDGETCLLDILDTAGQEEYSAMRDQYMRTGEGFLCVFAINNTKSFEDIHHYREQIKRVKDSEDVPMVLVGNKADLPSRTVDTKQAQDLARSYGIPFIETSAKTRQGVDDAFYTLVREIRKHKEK
# method.summary: KRAS G12D Coupled Nucleotide Exchange Assay
# Format: biochemical
# cond: read-out: KRAS G12D Coupled Exchange IC50
# Method: KRAS G12D Coupled Nucleotide Exchange Assay Following compound pre-incubation, purified SOS protein (aa 564-1049) and GTP (Roche 10106399001) were added to the assay wells and incubated for an additional 30 min. […] The assay plates were then read on a PerkinElmer EnVision Multilabel Reader, using AlphaScreen® technology, and data were analyzed using a 4-parameter logistic model to calculate IC50 values.
recorded.endpoint: IC50 (nM)

1 = O=C1CCCCc2c(Cl)cccc2-c2ncc3c(nc(OC[C@@]45CCCN4C[C@H](F)C5)nc3c2F)N2CC[C@H]3CCN1[C@H]3C2 [Example 162]
2 = O[C@H]1c2ncc(o2)CCc2c(Cl)cc3[nH]ncc3c2-c2ncc3c(nc(OC[C@@]45CCCN4C[C@H](F)C5)nc3c2F)N2CCC[C@@H]1C2 [Example 234]
**Query** Returns: the argument ( 1 or 2 ) having the larger IC50. Answer by stating the label of the chosen item.
**Result** 1

a = O=C1OCCCc2c(Cl)cccc2-c2ncc3c(nc(OC[C@@]45CCCN4C[C@H](F)C5)nc3c2F)N2CCOC[C@H](C2)O1 [Example 186]
b = Cc1cc2[nH]ncc2c2c1CCCCC(=O)OC1CN(CC3(CC3)C1)c1nc(OC[C@@]34CCCN3C[C@H](F)C4)nc3c(F)c-2ncc13 (mixture of isomers) [Example 80]
c = O=C1OCCCc2c(Cl)cc3[nH]ncc3c2-c2ncc3c(nc(O[C@@H]4CCOC4)nc3c2F)N2CCOC[C@H](C2)O1 [Example 197]
d = O=C1CC[C@@H]2C[C@@H]2c2c(Cl)cc3[nH]ncc3c2-c2ncc3c(nc(OC[C@@]45CCCN4C[C@H](F)C5)nc3c2F)N2CCC[C@H](C2)O1 [Example 127]
**Query** Arrange items by their IC50 values in increasing order. Show the ranking through the labels, in the order asked for.
**Result** d, a, b, c
(d: 3 nM, a: 9 nM, b: 47 nM, c: 105 nM)
